# Tested on: SN12C
# Measurement protocol: NCI tumour cell line growth inhibition, 48 h
Calls of active or inactive are those of the source. No stated cut-off is given here; in the data, active = GI50 up to about 1.1 µM and inactive = higher.
Would you mind answering with one of these outcomes? 1 = active, 0 = inactive

Cc1nc(O)nc(N(CCO)/N=C/c2ccc(Cl)cc2)c1C(=O)Nc1ccc(Cl)cc1    0
Fc1sc2c(c1F)C1CCC2C1 (stereo not given)    0
CCOC(=O)/C=C/[C@H](O)[C@@H](O)/C=C/C(=O)OCC    0
O=C(c1cccs1)N(Cc1cccnc1)C(=S)N(Cc1cccnc1)C(=O)c1cccs1    0

Input line: Per the records of this test, what outcome belongs to O=c1[nH]/c(=C/c2ccc(OCc3ccccc3)cn2)c(=O)[nH]/c1=C/c1ccc([N+](=O)[O-])cc1 ?
Output line: 0

Input line: Per the records of this test, what outcome belongs to Cc1cccc(NC2=NC(=O)C(CC(=O)Nc3ccccc3Cl)S2)c1 (stereo not given) ?
Output line: 0

Input line: Per the records of this test, what outcome belongs to COc1ccc(NC(=O)CC/C(CC(=O)c2ccco2)=N/Nc2ccc([N+](=O)[O-])cc2[N+](=O)[O-])cc1 ?
Output line: 0

Input line: Per the records of this test, what outcome belongs to CC(Cl)CN1c2ccccc2Sc2ccc(Cl)cc21 (stereo not given) ?
Output line: 0

Input line: Per the records of this test, what outcome belongs to O=C1c2ccccc2C2(O)Nc3c(ccc4ccccc34)C12O (stereo not given) ?
Output line: 0

Input line: Per the records of this test, what outcome belongs to COc1cc2c[n+](C)c3c4cc5c(cc4ccc3c2cc1OC)OCO5 [NITIDINE CHLORIDE] ?
Output line: 1

###

# Tested on: LOX IMVI
# Measurement protocol: NCI tumour cell line growth inhibition, 48 h
The source made the active and inactive calls. Rule as the data show it: active = GI50 up to about 1.1 µM and inactive = higher.
GI50 values for the compounds below.

Examples with answers:
CC1(C)CCCCCC(C)(CCCO)C1=O (stereo unspecified)    > 100 µM (inactive)
COCCCN(Cc1cc(OC)c(OC)c(OC)c1)C(=S)Nc1cccc(Cl)c1    21.5 µM (inactive)
N#CCCN(c1ccc(/C=N/c2nc(-c3ccccc3)cs2)cc1)S(=O)(=O)c1ccccc1    > 100 µM (inactive)
Cn1c(S)nc(C(N)=O)c1N    > 100 µM (inactive)
C[C@H](CN1CC(=O)NC(=O)C1)N1CC(=O)NC(=O)C1    > 100 µM (inactive)

Input line: Name the reported GI50 value associated with the compound CC1=C(C(=O)NNS(=O)(=O)c2ccc(C)cc2)CC(C(=O)NNS(=O)(=O)c2ccc(C)cc2)=C(C)N1
Output line: > 100 µM (inactive)

Input line: Name the reported GI50 value associated with the compound NC(=O)Nc1ccc(C(=O)NCCCNC(=O)c2ccc(NC(N)=O)cc2)cc1
Output line: > 100 µM (inactive)

Input line: Name the reported GI50 value associated with the compound O=C(O)c1ccc2[nH]c(=O)oc2c1
Output line: > 100 µM (inactive)

Input line: Name the reported GI50 value associated with the compound CCOc1ccccc1Nc1ccc(N)cc1S(=O)(=O)O
Output line: > 100 µM (inactive)

Input line: Name the reported GI50 value associated with the compound COC(=O)c1ccccc1C1CN=NC12Cc1cc(C)ccc1C2=O (stereo unspecified)
Output line: 36.4 µM (inactive)

Input line: Name the reported GI50 value associated with the compound O=C(O)C1OC1C(=O)O (stereo unspecified)
Output line: > 100 µM (inactive)

###

# Tested on: NCI-H522
# Measurement protocol: NCI tumour cell line growth inhibition, 48 h
Active and inactive are the calls of the source. No stated cut-off is given here; in the data, active = GI50 up to about 1.1 µM and inactive = higher.
GI50 values for the molecules below.

Examples with answers:
CC[C@H](C)C1=C(OC(C)=O)[N@+]2([O-])Oc3ccc(-c4c(O)c(O)c(-c5ccc(OC(C)=O)cc5)c(OC(C)=O)c4OC(C)=O)cc3O[C@]2([C@@H](C)CC)C(=O)N1O    10.6 µM (inactive)
COP(=O)(OC)C(O)/C=C/c1ccco1 (stereo not given)    > 100 µM (inactive)
Cc1cc(=O)oc2cc(OCc3c(F)cccc3Cl)ccc12    11.1 µM (inactive)
CC(=O)C1=C(O)/C(=C\c2ccco2)OC1=O    > 10 µM (inactive)

Next, consider the following molecule.
Input line: Form field - read-out: GI50; system: NCI-H522; submitted item: C=CCN1C(=O)/C(=C/c2cccs2)N=C1SC1OC(COC(=O)c2ccccc2)C(OC(=O)c2ccccc2)C1OC(=O)c1ccccc1 (stereo not given)
Output line: 11.4 µM (inactive)

###

# System: 786-0
# Measurement protocol: NCI tumour cell line growth inhibition, 48 h
Calls of active or inactive are those of the source. Cut-off read from the data, not from the text of the source: active = GI50 up to about 1.1 µM and inactive = higher.
Value kind: GI50

Examples with answers:
CN(C)C(=S)N/N=C\C(=N/NC(=S)N(C)C)c1ccccc1    7.33 µM (inactive)
CC1(C)CCCCCCCCCC2CC2CCC(C)(C)C1=O (centres undefined)    17.2 µM (inactive)
CC1(C)OCC([C@H]2O[C@@H](CC(=S)NCCCCCCCCCCCCNC(=S)C[C@H]3O[C@@H](C4COC(C)(C)O4)[C@H]4OC(C)(C)O[C@H]43)[C@H]3OC(C)(C)O[C@H]32)O1 (some centres undefined)    83.8 µM (inactive)
CSc1nc(Cl)c(Br)c(Nc2cnc(O)nc2O)n1    13.4 µM (inactive)
COc1cc2c(cc1O)[C@@H]1Cc3c(cc(OC)c(OC)c3Oc3cc4c(cc3OC)CCN(C)[C@@H]4Cc3ccc(O)cc3)[C@H](C2)N1C    36.6 µM (inactive)

Input line: Name the reported GI50 value associated with the compound Cn1cnc(N2CCCC2)c(C#N)c1=O
Output line: > 100 µM (inactive)

Input line: Name the reported GI50 value associated with the compound Cc1[nH]c(=O)nc(N/N=C/c2ccc(Cl)cc2)c1C(=O)Nc1ccc(Cl)cc1
Output line: 19.4 µM (inactive)

Input line: Name the reported GI50 value associated with the compound Cc1ccccc1C1=[N+]([O-])c2ccccc2C1=O
Output line: 17.4 µM (inactive)

Input line: Name the reported GI50 value associated with the compound CCN1/C(=C/C#C/C(C)=C\c2sc3ccccc3[n+]2CC)Sc2ccccc21
Output line: 3.13 µM (inactive)

###

# Test system: ACHN
# Measurement protocol: NCI tumour cell line growth inhibition, 48 h
Activity calls are given as the source filed them. Cut-off read from the data, not from the text of the source: active = GI50 up to about 1.1 µM and inactive = higher.
Value kind: GI50

Examples with answers:
COc1ccc2c(c1)[n+]([O-])c(-c1ccc(Cl)c(Cl)c1)c(N)[n+]2[O-]    42.6 µM (inactive)
COc1ccc(C2SCC(=O)N2NC(=O)C(C)Oc2ccccc2Cl)cc1 (stereo not given)    38.5 µM (inactive)
CC(C)CCNC(=O)c1ccc(CNC(=O)/C=C/c2ccc3ccccc3c2)cc1    > 100 µM (inactive)
COC(=O)C(Cc1c[nH]c2ccccc12)NP(=O)(O)OCC1OC(n2cc(I)c(=O)[nH]c2=O)CC1O (stereo not given)    > 100 µM (inactive)
CC(C)C(=O)CC(c1ccc(Br)cc1)N1N=C(C(C)C)CC1c1ccc(Br)cc1 (stereo not given)    > 100 µM (inactive)
CC1(C)CCCCCCCCCC2CC2CCC(C)(C)C1=O (stereo not given)    19.1 µM (inactive)
CC(CO)CCNc1ncnc2c1ncn2CCC(=O)OC(C)(C)C (stereo not given)    > 100 µM (inactive)
Cc1ccsc1/C(S)=N\c1ccc(Cl)c(/C=N/OC(C)(C)C)c1    24.5 µM (inactive)
CC1=C(C(=O)CC(=O)C(=O)Nc2cccc(C)c2C)Sc2ccccc2N1    > 100 µM (inactive)

Next, consider the following molecule.
Input line: Name the reported GI50 value associated with the molecule N#CC12Cc3cc4c(cc3-c3cccc(c31)CCN2C(=O)c1ccccc1)OCO4 (stereo not given)
Output line: > 100 µM (inactive)

###

# Test system: LXFL 529
# Measurement protocol: NCI tumour cell line growth inhibition, 48 h
The source made the active and inactive calls. No stated cut-off is given here; in the data, active = GI50 up to about 1.1 µM and inactive = higher.
GI50 values for the molecules below.

Examples with answers:
CC(C)=CCC/C(C)=C/CC/C(C)=C/CC/C=C(\C)CC/C=C(\C)CCC1SC1(C)C (stereo unspecified)    > 100 µM (inactive)
C=C(C)C1CC=C(C)CC1 (stereo unspecified)    855 µM (inactive)
COC(=O)[C@@H]1C(=O)O[C@@H](c2ccc3c(c2)OCO3)[C@@H]1C(=O)OC.COC(=O)[C@H]1C(=O)O[C@@H](c2ccc3c(c2)OCO3)[C@@H]1C(=O)OC    > 100 µM (inactive)
CN(C)c1ccc(/C=c2\sc3nc4ccccc4n3c2=O)cc1    > 100 µM (inactive)
N#CCCN(c1ccc(/C=N/c2nc(-c3ccccc3)cs2)cc1)S(=O)(=O)c1ccccc1    56.9 µM (inactive)

Next, consider the following molecule.
Input line: Form field - read-out: GI50; system: LXFL 529; submitted item: ICC1CCCO1 (stereo unspecified)
Output line: > 100 µM (inactive)
